Target: 5-hydroxytryptamine receptor 1A (Homo sapiens)
Sequence (P08908 whole entry): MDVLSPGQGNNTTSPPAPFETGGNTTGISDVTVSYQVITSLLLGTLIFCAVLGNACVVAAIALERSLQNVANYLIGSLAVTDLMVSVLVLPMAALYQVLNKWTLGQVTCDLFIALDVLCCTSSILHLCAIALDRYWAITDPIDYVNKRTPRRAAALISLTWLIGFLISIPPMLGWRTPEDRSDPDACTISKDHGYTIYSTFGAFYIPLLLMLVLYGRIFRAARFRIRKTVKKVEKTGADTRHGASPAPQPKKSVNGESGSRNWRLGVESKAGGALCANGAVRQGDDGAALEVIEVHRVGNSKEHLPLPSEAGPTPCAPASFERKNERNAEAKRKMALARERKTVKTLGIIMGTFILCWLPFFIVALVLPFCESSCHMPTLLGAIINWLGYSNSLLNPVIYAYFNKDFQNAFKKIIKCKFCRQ
Assay: Displacement of [3H]-5-HT from human 5-HT1A receptor expressed in CHOK1 cells after 30 mins by liquid scintillation counting analysis
Format: cell-based, CHO-K1
pKi: −log10 of the molar value.
REPORTED ENDPOINT: pKi

{"ENTRY SMILES": "O=c1[nH]c(CCCCN2CCN(c3cccc(Cl)c3)CC2)nc2ccccc12", "pKi": 8.53}
{"ENTRY SMILES": "NC(=O)c1ccccc1NC(=O)CCCCN1CCN(c2cccc(Cl)c2)CC1", "pKi": 7.40}
{"ENTRY SMILES": "O=c1c2ccccc2ncn1CCCCCN1CCN(c2ccccc2)CC1", "pKi": 7.54}

1 = O=c1[nH]c(CCCCCN2CCN(c3cccc(Cl)c3)CC2)nc2ccccc12
2 = Cc1sc2ncn(CCCCCN3CCN(c4ccc(Cl)cc4)CC3)c(=O)c2c1C
Incoming: // compare measured pKi between 1 and 2 ; output the lower one Return value: the label identifying the chosen record.
Outgoing: 2
(2: 7.58, 1: 8.13)
